Measured values drawn from PubChem BioAssay for this set.

A collection of compounds and their measured composite z-score
tested on: Lefty1; test: Lefty1 protein binding to printed compounds – biochemical, small-molecule microarray, 635/667 nm fluorescence, primary screen (AID 1139); conditions: fluorescence 635/667, higher = more signal

COMPOUND	composite z-score
COC(=O)[C@@]1(CCC(=O)OC(C)(C)C)N=C(c2ccc(OCCCO)cc2)O[C@H]1c1ccccc1	-0.85
COCCOC(=O)N1C(=O)[C@@]2(c3cc(C#CCCO)ccc31)[C@H](c1ccc(O)cc1)N1[C@H](c3ccccc3)[C@H](c3ccccc3)OC(=O)[C@H]1[C@@H]2C(=O)N1CCN(c2ncccn2)CC1	0.883
CC[C@@H]1C=C(C(=O)O)[C@H](c2ccc(C)cc2)N1S(=O)(=O)c1ccc(C)cc1	0.285
CN1C(=O)C2C=CC(C(O)c3ccccc3)N(N3CCCCC3)C2C1=O (stereo not drawn)	0.0104
Cc1ccc(S[C@]2(C(=O)O)CC(=O)N(C(C)C)[C@@H]2c2ccc(CO)cc2)cc1	-0.0075
CC(C)N1CC=CC23O[C@@H]4C=CCOC(=O)[C@@H]4[C@H]2C(=O)N(CCCCCO)[C@@H]3C1=O (stereo partly drawn)	0.204
O=C1NC(=O)C2C1C=CC(C(O)c1ccc(I)cc1)N2Nc1ccc(Cl)cc1Cl (stereo not drawn)	-0.199
Cc1ccc(S[C@]2(C(=O)O)CC(=O)N(Cc3ccccc3C(F)(F)F)[C@@H]2c2ccc(CO)cc2I)cc1	-0.781

====

assay: probe aEGFR binding to arrayed compounds – biochemical, biotinylated probe, 635/667 nm fluorescence, primary screen (AID 1097); details: small-molecule microarray, higher = more signal;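 further: probe is a biotinylated anti-EGFR antibody binding compounds printed on slides; score combines fluorescence near 667 nm and signal to noise of each spot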
Would you please tag the item Met when its composite z-score is -0.04 or above, and Not met when it is below?

COMPOUND	GROUP LABEL
CC(C)N1CC=CC23O[C@@H]4C=CCOC(=O)[C@@H]4[C@H]2C(=O)N(CCCCCO)[C@@H]3C1=O (stereo not given in full)	Not met
O[C@@H](Cc1ccccc1)[C@@H](/C=C/C1CC1)NCc1cccc(Cl)c1	Not met
C=CCN1C(=O)[C@]2(Cc3ccccc3)N=C(c3ccc(OCCCO)cc3)O[C@@H]2c2ccccc21	Met
C[N+](C)(C)CCCC[C@@H]1NC(=O)[C@@H]2C[C@H](C(=O)NCCCCCN)[C@H](c3ccc(O)cc3)N2C1=O	Met
C=CCNC(=O)[C@H]1[C@@H]2C(=O)O[C@@H](c3ccccc3)[C@@H](c3ccccc3)N2[C@@H](c2ccc(OCCO)cc2)[C@]12C(=O)Nc1ccc(C#CCC(C(=O)OC)C(=O)OC)cc12	Met
COCCCNC(=O)[C@@]1(Cc2ccccc2CN=[N+]=[N-])N=C(c2ccc(OCCCO)cc2)O[C@H]1c1ccccc1CN=[N+]=[N-]	Not met
COC(=O)C(CC#Cc1ccc2c(c1)[C@]1(C(=O)N2)[C@H](c2ccc(O)cc2)N2[C@H](c3ccccc3)[C@H](c3ccccc3)OC(=O)[C@H]2[C@@H]1C(=O)N1CCN(c2ncccn2)CC1)C(=O)OC	Met
Cc1ccc([C@H]2C(C(=O)O)=CCN2S(=O)(=O)c2ccc(C)cc2)cc1	Not met
COc1ccc(NN2C(C(O)c3ccc(N(C)C)cc3)C=CC3C(=O)N(C4CCCCC4)C(=O)C32)cc1 (stereo not given)	Met
CCCC[C@@H]1C[C@H]1[C@@H](NC(=O)c1cccnc1)c1ccc(Cl)cc1	Not met
CN1C(=O)C2C=CC(C(O)C=Cc3ccc([N+](=O)[O-])cc3)N(Nc3ccccc3)C2C1=O (stereo not given)	Met
CN(C)CCCCCCNC(=O)[C@@H]1C[C@@H]2C(=O)N[C@@H](CCCC[N+](C)(C)C)C(=O)N2[C@@H]1c1ccc(O)cc1	Not met
COc1ccc(C(O)C2C=CC3C(=O)N(C)C(=O)C3N2N(c2ccccc2)c2ccccc2)c2ccccc12 (stereo not given)	Met
C#CCN1[C@H](/C=C/C2CC2)[C@H](Cc2ccccc2)OC(=O)[C@@H]1Cc1ccccc1	Not met

====

target: Torsin-1A-interacting protein 1 (Homo sapiens) (UniProt Q5JTV8); assay: compound microarray binding of lysate hLAP1 – cell lysate, small-molecule microarray, COS7 lysate, 635/667 nm fluorescence, primary screen (AID 1116); settings: 635 nm fluorescence, higher = more signal
Sequence (Q5JTV8 whole entry, looked up): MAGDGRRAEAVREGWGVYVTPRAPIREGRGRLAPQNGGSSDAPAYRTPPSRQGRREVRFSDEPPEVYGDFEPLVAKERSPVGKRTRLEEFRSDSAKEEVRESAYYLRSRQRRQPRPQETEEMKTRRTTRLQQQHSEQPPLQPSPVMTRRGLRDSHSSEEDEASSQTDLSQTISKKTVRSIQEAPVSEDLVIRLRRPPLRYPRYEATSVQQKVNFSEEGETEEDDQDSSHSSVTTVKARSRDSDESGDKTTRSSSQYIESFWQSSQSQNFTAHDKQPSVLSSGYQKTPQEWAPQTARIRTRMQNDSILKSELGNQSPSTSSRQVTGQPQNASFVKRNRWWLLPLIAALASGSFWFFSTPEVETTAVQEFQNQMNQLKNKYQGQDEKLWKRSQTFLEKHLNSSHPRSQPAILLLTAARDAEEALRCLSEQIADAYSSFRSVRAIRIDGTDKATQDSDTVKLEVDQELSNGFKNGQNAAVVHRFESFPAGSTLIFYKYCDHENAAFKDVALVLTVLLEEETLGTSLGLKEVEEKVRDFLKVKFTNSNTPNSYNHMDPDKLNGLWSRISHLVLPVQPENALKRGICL
// FALSE strictly below 1 in composite z-score; TRUE otherwise

MOLECULE	GROUP LABEL
CCCC1(C(=O)OC)C=C2C(=C(c3ccccc3)C(=O)C2C)CN1 (configuration not stated)	TRUE
O=C(CS)NCCCCCNC(=O)[C@H]1C[C@H]2C(=O)NCC(=O)N2[C@H]1c1ccc(O)cc1	FALSE
COC(=O)C(CC#Cc1ccc2c(c1)[C@]1(C(=O)N2)[C@H](c2ccccc2OCCO)N2[C@H](c3ccccc3)[C@H](c3ccccc3)OC(=O)[C@H]2[C@@H]1C(=O)O)C(=O)OC	FALSE
C=C(C(=O)CC[C@H](OC(C)=O)c1ccccc1OCCO)C(C)C	TRUE
C=CCOC(=O)[C@H]1[C@@H]2C(=O)O[C@@H](c3ccccc3)[C@@H](c3ccccc3)N2[C@@H](c2ccc(OCCOC(=O)[C@@H]3C[C@@H]4C(=O)N5CCC[C@H]5C(=O)N4[C@@H]3c3cccc(OCCO)c3)cc2)[C@]12C(=O)Nc1ccc(I)cc12	FALSE
CCC(CC)C(O)C1C=CC2C(=O)N(c3ccccc3)C(=O)C2N1Nc1ccccc1 (configuration not stated)	FALSE
COC(=O)C[C@H]1O[C@@H](CCc2ccccc2)[C@@H](C)[C@@H]1[Si](C)(C)c1ccc(OC)cc1	FALSE

====

composite z-score: recorded values
assay: COS7 lysate on small-molecule microarray, probe aHis, 635 nm (AID 1123); settings: COS7 cell lysate, fluorescence, higher = more signal;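 further: z-score combines 667nm fluorescence intensity with signal-to-noise per printed compound spot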
REPORTED PROPERTY: composite z-score

COMPOUND	OBSERVED MEASUREMENT
O=C(NCCN1CCOCC1)[C@@H]1c2ccccc2C(=O)N(Cc2cc(C(F)(F)F)cc(C(F)(F)F)c2)[C@H]1c1ccc(CO)cc1	1.61
C=CC[C@@]1(C(=O)N2CCCCC2)N=C(c2ccc(OCCCO)cc2)O[C@@H]1c1ccccc1N=[N+]=[N-]	2.41
C[C@H]1C2[C@H](Cc3ccccc3)NC(=O)[C@]23C(=O)NCC(=O)N2CCC[C@H]2C(=O)NC/C=C/CCC/C=C/C3[C@@H]2O[C@]12C (some centres undefined)	-0.18
CCOc1cc(C(O)C2C=CC3C(=O)N(c4ccccc4)C(=O)C3N2Nc2ccc(C(C)C)cc2)ccc1O (centres undefined)	2.63
COCCOC(=O)N1C(=O)[C@@]2(c3cc(C#CCCO)ccc31)[C@H](c1ccc(OCCO)cc1)N1[C@H](c3ccccc3)[C@H](c3ccccc3)OC(=O)[C@H]1[C@@H]2C(N)=O	1.93
COCCOC(=O)N1C(=O)[C@@]2(c3ccccc31)[C@H](C(=O)N1CCCCCCC1)[C@H]1C(=O)O[C@H](c3ccccc3)[C@H](c3ccccc3)N1[C@@H]2c1ccc(OCCO)cc1	5.19
COc1ccc([Si](C)(C)[C@@H]2[C@@H](CCO)O[C@]3(C(=O)N(Cc4cccc(N5CCOC5=O)c4)c4ccccc43)[C@H]2C)cc1	0.531
Cc1ccc(S[C@]2(C(=O)O)CC(=O)N(Cc3ccccc3C(F)(F)F)[C@@H]2c2ccc(CO)cc2I)cc1	1.74
O=C1C2C=CC(C(O)c3cc(C(F)(F)F)cc(C(F)(F)F)c3)N(Nc3ccccc3)C2C(=O)N1c1ccccc1 (centres undefined)	2.51
COc1ccc(C(O)C2C=CC3C(=O)N(C)C(=O)C3N2N(c2ccccc2)c2ccccc2)c2ccccc12 (centres undefined)	-0.198
COC(=O)[C@@]1(Cc2ccc(F)cc2)[C@H]2c3cc(C(=O)N(C)C)n(Cc4ccc(C)o4)c3C[C@H]2CN1C(=O)c1ccccc1	3.29
COC(=O)c1c2oc(c1C(=O)OC)C(=O)NC1(CCCCC1)c1cn(nn1)C[C@H](Cc1ccccc1)NC(=O)N[C@H](CO)CC2	1.75
O=C1NC(=O)C2C1C=CC(C(O)c1ccc(-c3ccccc3)s1)N2Nc1ccc(Cl)cc1Cl (centres undefined)	2.82
COC(=O)[C@]1(Cc2ccccc2)N=C(c2ccc(OCCCO)cc2)O[C@@H]1c1ccccc1N=[N+]=[N-]	1.59

====

test: JC-1 mitochondrial potential readout, lung cancer cells – cell-based, A549, JC-1 fluorescence, basal, 24 h, 100 nL, profiling panel (AID 1138); details: higher = more signal;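 further: A549 lung adenocarcinoma cells under basal conditions with no added stimulus; test concentration not given here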

COMPOUND	z-score
COc1cc(CO)cc(I)c1O[C@H]1C=C(C(=O)NCCO)C[C@@H](NC[C@@H]2CCCO2)[C@@H]1O	0.452
O=C1O[C@@H](c2ccccc2)[C@@H](c2ccccc2)N2[C@@H](c3ccc(OCCO)cc3)[C@]3(C(=O)Nc4ccc(C#CC5=CCCCC5)cc43)[C@@H](C(=O)N3CCCCCCC3)[C@H]12	-1.02
O=C1O[C@@H](c2ccccc2)[C@@H](c2ccccc2)N2[C@@H](c3ccc(OCCO)cc3)[C@]3(C(=O)Nc4ccc(C#CCCO)cc43)[C@@H](C(=O)NC[C@H](O)c3ccccc3)[C@H]12	0.225
O=C1C2C=CC(C(O)c3c(F)cccc3Cl)N(Nc3ccccc3F)C2C(=O)N1c1ccccc1 (stereo not drawn)	0.353
[N-]=[N+]=NCc1ccccc1[C@@H]1OC(c2ccc(OCCCO)cc2)=N[C@]1(CCS(=O)(=O)c1ccccc1)C(=O)N1CCOCC1	-0.191
O=C1C2C=CC(C(O)COCc3ccccc3)N(Nc3ccc([N+](=O)[O-])cc3)C2C(=O)N1c1ccccc1 (stereo not drawn)	-0.738
COCCOC(=O)N1C(=O)[C@@]2(c3cc(C#CCCO)ccc31)[C@H](c1ccc(OCCO)cc1)N1[C@H](c3ccccc3)[C@H](c3ccccc3)OC(=O)[C@H]1[C@@H]2C(N)=O	-0.212
[N-]=[N+]=NCc1ccccc1C[C@@]1(C(=O)NCC(O)CO)N=C(c2ccc(OCCCO)cc2)O[C@@H]1c1ccccc1 (stereo partly drawn)	0.663
C=CCC(OC(C)=O)[C@@H]1[C@@H](N(Cc2ccc(-c3cccc(C(F)(F)F)c3)o2)C(=O)c2cccc3ccccc23)c2cc(OCCCO)ccc2N1C(=O)Cc1ccc2ccccc2c1 (stereo partly drawn)	-0.65
O=C1C2C=CC(C(O)C=Cc3ccc([N+](=O)[O-])cc3)N(Nc3ccccc3F)C2C(=O)N1c1ccccc1 (stereo not drawn)	-0.607
COC(=O)C(CC#Cc1ccc2c(c1)[C@]1(C(=O)N2)[C@H](c2ccc(O)cc2)N2[C@H](c3ccccc3)[C@H](c3ccccc3)OC(=O)[C@H]2[C@@H]1C(=O)N1CCN(c2ncccn2)CC1)C(=O)OC	-0.35
Cc1ccc([C@H]2C(C(=O)O)=CCN2S(=O)(=O)c2ccc(C)cc2)cc1	-0.575
COCCCNC(=O)[C@@]1(CCS(=O)(=O)c2ccccc2)N=C(c2ccc(OCCCO)cc2)O[C@H]1c1ccccc1N=[N+]=[N-]	-0.341
COc1ccc(C(O)C2C=CC3C(=O)N(C)C(=O)C3N2NC(=O)OC(C)(C)C)c2ccccc12 (stereo not drawn)	-0.771
O=C(CS)NCCCCCNC(=O)[C@H]1C[C@H]2C(=O)NCC(=O)N2[C@H]1c1cccc(OCCO)c1	-0.0613
CCOC(=O)C1=CC[C@@H](c2ccc(C(F)(F)F)cc2)N(S(=O)(=O)c2ccc(C)cc2)[C@H]1c1ccccc1	-1.9
CCCC=C(CCC)[C@@H](NC(=O)OCC(C)C)c1ccccc1	-0.138
NCCCCCNC(=O)[C@H]1C[C@H]2C(=O)N[C@@H](Cc3ccccc3)C(=O)N2[C@H]1c1cccc(OCCO)c1	1.07
COc1ccc(NN2C(C(O)c3ccc(N(C)C)cc3)C=CC3C(=O)N(C4CCCCC4)C(=O)C32)cc1 (stereo not drawn)	-0.165
CS(=O)(=O)CCOC(=O)C1=CC(CCCO)=CC(C2CC2)N(Cc2cc3c(cc2Br)OCO3)C=C1C(=O)OCCS(C)(=O)=O (stereo not drawn)	1.29
O=C(NCCN1CCOCC1)[C@@H]1c2ccccc2C(=O)N(Cc2cc(C(F)(F)F)cc(C(F)(F)F)c2)[C@H]1c1ccc(CO)cc1	2.57
COc1ccc(C#Cc2ccc3c(c2)[C@]2(C(=O)N3)[C@H](c3ccc(O)cc3)N3[C@H](c4ccccc4)[C@H](c4ccccc4)OC(=O)[C@H]3[C@@H]2C(=O)N2CCc3cc(OC)c(OC)cc3C2)cc1	-0.577
COC(=O)c1c2oc(c1C(=O)OC)C(=O)NC1(CCCCC1)c1cn(nn1)C[C@H](Cc1ccccc1)NC(=O)N[C@H](CO)CC2	0.304
C[N+](C)(C)CCCC[C@@H]1NC(=O)[C@H]2C[C@@H](C(=O)NCCCCCCNC(=O)CS)[C@@H](c3ccc(O)cc3)N2C1=O	-0.459
CCOC(=O)C[C@H]1[C@H](OC(=O)c2ccc(C(=O)c3ccccc3)cc2)[C@@H](NC(=O)Cc2ccc(OC)cc2)c2cc(OCCCO)ccc2N1C(=O)c1ccc2ccccc2n1	0.842
COC(=O)c1c(CC[C@@H](CO)NC(=O)N[C@@H](Cc2ccccc2)Cn2cc(-c3ccccn3)nn2)oc(C(=O)N2CCOCC2)c1C(=O)OC	-0.187
COC(=O)c1c(CC[C@@H](CO)NC(=O)N[C@H](Cc2ccccc2)Cn2cc(-c3ccccn3)nn2)oc(C(C)=O)c1C(=O)OC	-0.117
CC[C@@H]1C=C(C(=O)O)[C@H](c2cccc3ccccc23)N1S(=O)(=O)c1ccc(C)cc1	-0.345
